Let's look at some compounds and their measured solubility at 2 h.
Assay: physchem
Assay type: physicochemical
Settings: aqueous buffer, thermodynamic from solid; 50 mM phosphate buffer (pH 6.5), room temperature (20° C.); read-out: Water solubility
Provide only the numeric value, understood in µM.

See these solved cases before continuing.
CON(C=O)Cc1cc(C(=O)NOCCO)c(Nc2ccc(I)cc2F)c(F)c1F :: 457
C[S+]([O-])CCONCc1cc(C(=O)NOCCO)c(Nc2ccc(I)cc2F)c(F)c1F (stereo not shown) :: 613
O=C(NOCCO)c1cc(COCC(O)CO)c(F)c(F)c1Nc1ccc(I)cc1F (stereo not shown) :: 958

Now for another entry.
[in] Any idea what its solubility at 2 h is? The compound is `CC1(C)CON(Cc2cc(C(=O)NOCCO)c(Nc3ccc(I)cc3F)c(F)c2F)C1=O`
[out] 39
